Just for reference, patent US20210380703A1 is where these values come from.

- Target or system: T1, Goat anti-Human Kappa
- T1 construct: Positive control; also called biotinylated goat anti-human kappa light chain
- Method description: ELISA; positive control; note: test concentration or dose not given here
// optical density lookup, one value per entry

Please review the following examples before continuing.
{"Binder": "365_A03 (antibody, V domains shown, VH/VL only) VH: EVQLLESGGGLVQPGGSLRLSCAASGFTFSSYSMNWVRQAPGKGLEWVAGINYNSGYKGYADSVKGRFTISRDNSKNTLYLQMNSLRAEDTAVYYCARSANWHDTALDYWGQGTLVTVSS VL: DIQMTQSPSSLSASVGDRVTITCRASQSILSYLNWYQQKPGKAPKLVIYAVTSRASGVPSRFSGSGSGTDFTLTISSLQPEDFATYYCQQSYDSPLTFGGGTKVEIK", "Value": "3.44 OD"}
{"Binder": "375_A03 (antibody, V domains shown, VH/VL only) VH: EVQLLESGGGLVQPGGSLRLSCAASGFTFDSYSMNWVRQAPGKGLEWVAGINYNGGYTSYADSVKGRFTISRDNSKNTLYLQMNSLRAEDTAVYYCARGATWHDTHLDYWGQGTLVTVSS VL: DIQMTQSPSSLSASVGDRVTITCRASQSILTYLNWYQQKPGKAPKLLIYAATSRHSGVPSRFSGSGSGTDFTLTISSLQPEDFATYYCQQSYDNPLTFGGGTKVEIK", "Value": "3.09 OD"}

Could you now consider this next binder?
According to the records, this binder 368_H06 (antibody, V domains shown, VH/VL only) VH: EVQLLESGGGLVQPGGSLRLSCAASGFTFDSYGMHWVRQAPGKGLEWVANINYNGGYKSYADSVKGRFTISRDNSKNTLYLQMNSLRAEDTAVYYCARGATWHDTHLDYWGQGTLVTVSS VL: DIQMTQSPSSLSASVGDRVTITCRASQSILTYVNWYQQKPGKAPKLLIYATTSRASGVPSRFSGSGSGTDFTLTISSLQPEDFATYYCQQSYDNPLTFGGGTKVEIK displays optical density of 3.61 OD
